Would you mind telling me the reported inhibition of each entry?
experimental system: Acyl-protein thioesterase 2 (Homo sapiens) (UniProt O95372)
Sequence (O95372 whole entry, looked up): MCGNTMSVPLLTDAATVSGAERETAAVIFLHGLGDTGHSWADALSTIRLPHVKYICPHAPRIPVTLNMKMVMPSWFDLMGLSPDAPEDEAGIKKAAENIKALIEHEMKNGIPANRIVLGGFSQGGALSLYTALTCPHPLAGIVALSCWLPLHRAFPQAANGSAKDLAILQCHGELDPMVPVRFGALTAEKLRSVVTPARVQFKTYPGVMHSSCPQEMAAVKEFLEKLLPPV
run description: LYPLA1 inhibitor selectivity over serine hydrolases, late-stage follow-up, selectivity assay for LYPLA1 inhibitor project, cell lysate, competitive ABPP, HEK293T proteome, set 2 (AID 652018);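 note: 0% = DMSO-only band intensity and 100% = blank gel background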
experimental context: competitive ABPP FP-PEG-Rh gel, LYPLA2, inhibition, at 1 µM, stronger effect = higher value
Give bare numbers, in %.

Consider the worked cases shown below.
> print(dat)
                           smiles.structure  measured.number
1  O=C(N1CCN(c2ccc(Cl)c(Cl)c2)CC1)n1ncc(C(O)(c2ccccc2)c2ccccc2)n1               30
2        COc1ccc(N2CCN(C(=O)n3cncn3)CC2)cc1               30
3  COc1ccc(N2CCN(C(=O)n3nc(Br)c(Br)n3)CC2)cc1               80
4  O=C(CN1CCN(C(=O)n2ncc(-c3ccc(-c4ccccc4)cc3)n2)CC1)Nc1cc(C(F)(F)F)ccc1Cl               30
5  O=C(CN1CCN(C(=O)n2ncc(-c3ccc(OC(F)(F)F)cc3)n2)CC1)Nc1cc(C(F)(F)F)ccc1Cl               30
6  COc1ccc(N2CCN(C(=O)n3ncc(-c4ccccc4)n3)CC2)cc1               30
7  O=C(CN1CCN(C(=O)n2nc(Br)c(Br)n2)CC1)Nc1cc(C(F)(F)F)ccc1Cl              100
8  O=C(CN1CCN(C(=O)n2cc(-c3ccc(OC(F)(F)F)cc3)nn2)CC1)Nc1cc(C(F)(F)F)ccc1Cl               30

Here is the next item to consider.
Recorded inhibition for O=C(CN1CCN(C(=O)n2ncc(C(O)(c3ccccc3)c3ccccc3)n2)CC1)Nc1cc(C(F)(F)F)ccc1Cl , please?
100

Origin of values: PubChem BioAssay AID652018
